EC30 listing for selected compounds.
test system: mono-methyl arginine in RKO cells; experiment: RKO Methylation Assay, In Cell Western (ICW) for mono-methyl arginine and DNA content; assay type: cell-based; details: Homo sapiens, RKO, 72 h, RKO cells, 72 hours, mono-methyl arginine, percent activation; single experiment or average of multiple experiments; read-out: EC30 (In Cell Western data, Numerical)
# unit: µM | format: bare number

CNCCN(C)Cc1c[nH]nc1-c1ccc(OC2COC2)cc1 | 0.379
CC(C)CN(C)C(=O)c1ccc(-c2n[nH]cc2CN(C)CCN)cc1 | 18.5
CNCCN(C)Cc1c[nH]nc1-c1ccc(C(C)(C)COC)cc1 | 0.894

Sample CNCCN(C)Cc1n[nH]cc1-c1ccc(OC(C)C)c(Cl)c1 ; EC30 observed: 0.238

# EC30 (compound: CN(CCN)Cc1c[nH]nc1-c1ccc(C(F)(F)F)c(Cl)c1 ) is 1.29

Item: CN(CCN)Cc1c[nH]nc1-c1ccc(C2CCOCC2)cc1 | EC30: 2.85
